# Experiment Description: Cycloheximide Counterscreen for Small Molecule Inhibitors of Shiga Toxin; also: read at 38.3 µM for the half of the compounds with a filed dose
# Test Conditions: cell reporter, cycloheximide protein synthesis inhibition counterscreen
Out of some 300,000 compounds screened, about 37,000 (12%) were called active. Rule as the data show it: active = max response mostly above about 13% (no sharp cut-off); inactive = mostly below about 14%. This is one part of a sample in which actives are shown more often than they occur.
Pick one: label 1 (active), label 0 (inactive)

Query :: // return assay outcome for C=C(C)CNC(=S)/N=c1\scc(C)n1CC
Result :: label 0

Query :: Please share the test call associated with COc1ccc(C(=O)Cc2cnn(-c3ccccc3)c2)c(O)c1 .
Result :: label 1

Query :: Please share the test call associated with COc1ccc(S(=O)(=O)NC(C)C(=O)NCc2ccncc2)cc1Cl (stereo unspecified) .
Result :: label 0

Query :: For this compound, state the assay outcome: c1ccc(CSc2nnc(-c3ccco3)n2Cc2ccccc2)cc1
Result :: label 1

Query :: Please indicate how the test categorized Cn1c(=O)c2c(nc(NCCc3ccccc3)n2Cc2ccccc2)n(C)c1=O .
Result :: label 0

Query :: Dear all, I need the recorded test outcome for COc1ccc(C(=O)C[n+]2ccc(C)cc2)cc1 , thank you.
Result :: label 0

Query :: For Cc1cc(C)cc(N(CC(=O)NC2CCCC2)C(=O)CCC(=O)Nc2nccs2)c1 , what call appears in the results of this test?
Result :: label 0

Query :: Dear all, I need the recorded test outcome for Cn1c(=O)c2c(nc(OCc3cccnc3)n2Cc2ccccc2)n(C)c1=O , thank you.
Result :: label 1

Query :: What is the recorded call for this compound in the test? Cc1cc(O)cc(O)c1C(=O)Cc1cnn(-c2ccccc2)c1
Result :: label 0

Query :: Recorded test call requested for O=C(CSc1nnc(-c2ccco2)n1Cc1ccccc1)NC(=O)NCc1ccco1
Result :: label 0

Query :: Entry c1ccc(CSc2nnc(-c3ccco3)c(-c3ccco3)n2)cc1 : call = ?
Result :: label 0

====

# Experiment Description: Cycloheximide Counterscreen for Small Molecule Inhibitors of Shiga Toxin; also: read at 38.3 µM for the half of the compounds with a filed dose
# Test Conditions: cell reporter, cycloheximide protein synthesis inhibition counterscreen; stronger effect = higher value
Out of some 300,000 compounds screened, about 37,000 (12%) were called active. The sample holds actives, similar compounds and a random draw of the others, so the mix is not that of the screen.
Result Type: max response (%)
The figure you give is taken to be in %; do not add the unit.

Query :: For COC(=O)c1ccc(COc2ccc(/C=C/C(=O)c3ccc(OC)c(CSCC(=O)O)c3)cc2OC)cc1 , what is its reported max response?
Result :: 16.2

Query :: Fill blank: measured max response of the molecule Cc1cc2nc(-c3ccc(NC(=O)c4cccnc4)cc3)oc2cc1C is ____.
Result :: 32.1

Query :: So what does the record say about max response for CCCCCc1ccc(-c2ccc(OCC)cc2)nc1 ?
Result :: 15.6

Query :: Which value of max response has been reported for COc1cc(OC)cc(C(=O)Nc2ccc(S(=O)(=O)Nc3cc(C)on3)cc2)c1 in the records?
Result :: -4.87

Query :: Given the entry CCOc1c(CNCc2ccc(C(=O)O)cc2)cccc1OC , report its measured max response.
Result :: -3.44

Query :: Requested read-out: max response. Entry: COC(=O)c1cc(NC(=O)c2cccnc2)ccc1N1CCOCC1
Result :: -2.96

Query :: What value of max response has been reported for the following molecule? O=C(Cc1ccc([N+](=O)[O-])cc1)Nc1ccc(C(=O)N2CCOCC2)cc1
Result :: -1.78

Query :: # get_value(readout='max response', item= CC(=O)Nc1ccc(-c2nc3ccccc3o2)cc1 )
Result :: 35.3

Query :: Sample CCC(CC)c1nnc(NC(=O)c2nn(C)c(=O)c3ccccc23)s1 — what was its max response?
Result :: -3.83

Query :: # input molecule: CC(=O)Nc1ccc(Nc2c3ccccc3nc3ccccc23)cc1 ; wanted: its max response
Result :: -9.79

Query :: # input molecule: CC(=O)NC(=S)Nc1ccc(NC(=O)c2cccnc2)cc1 ; wanted: its max response
Result :: 1.22

====

# Experiment Description: Cycloheximide Counterscreen for Small Molecule Inhibitors of Shiga Toxin; also: read at 38.3 µM for the half of the compounds with a filed dose
# Test Conditions: cell reporter, cycloheximide protein synthesis inhibition counterscreen
Out of some 300,000 compounds screened, about 37,000 (12%) were called active. Cut-off read from the data, not from the text of the source: active = max response mostly above about 13% (no sharp cut-off); inactive = mostly below about 14%. What follows is part of a selection rich in actives, with near analogues and random picks from the rest.
Mark one answer only. Choices: active, inactive

Query :: Record request — test call for Cc1ccc(C(=O)COC(=O)CCN2C(=O)C3C4CCC(C4)C3C2=O)cc1C (stereo not drawn)
Result :: inactive

Query :: Lab log entry: COc1ccc(C(=O)CSc2nnnn2C)c(OC)c1 — outcome as called in the assay?
Result :: inactive

Query :: What is the recorded call for this compound in the test? COc1ccc(-n2nnnc2SCC(=O)Nc2ccccc2)cc1
Result :: inactive

Query :: Tell me the assay call for CCCCC(c1nnnn1CS(=O)(=O)c1ccc(C)cc1)N1CCC(C(N)=O)CC1 (stereo not drawn) please.
Result :: inactive

Query :: Each compound tested received a call. Report the one for CCn1c(SCc2ccccc2)nc2cc(OC)c(OC)cc2c1=O .
Result :: inactive

Query :: # outcome recorded in this test, key = Cc1ccc(C)c(-n2nnnc2SCC(=O)c2c(N)n(C)c(=O)n(C)c2=O)c1
Result :: inactive

Query :: I would be grateful if you could indicate the recorded call for COc1ccccc1CNC(=O)c1ccc(N(C)S(=O)(=O)c2ccc(C)cc2)cc1 .
Result :: inactive

Query :: # lookup: test call for Cc1ccc(Nc2nc(-c3ccc(O)cc3O)cs2)nc1
Result :: active

Query :: Hey, what did the test say about O=[N+]([O-])c1ccc(O)c(/C=N/Nc2ccccc2[N+](=O)[O-])c1 ?
Result :: active

Query :: Check the results log: what was the call for O=C(N/N=C/c1cc([N+](=O)[O-])ccc1O)/C(=C\c1cccs1)NC(=O)c1ccccc1 ?
Result :: inactive

Query :: Would you mind telling me which call this test gave Cc1ccc(F)cc1NC(=O)c1cccc(N(C)C)c1 ?
Result :: active

Query :: # lookup: test call for Nc1nnnn1/N=C/c1cc([N+](=O)[O-])ccc1O
Result :: inactive

Query :: I would be grateful if you could indicate the recorded call for O=C1NC(=O)C(c2ccc(Cl)cc2)N1 (stereo not drawn) .
Result :: inactive

Query :: Could you kindly confirm the outcome this assay logged for CC(C)(C)Nc1c(N)c(=O)oc2ccccc12 ?
Result :: inactive

Query :: Could you please tell me the result logged for O=C(Nc1ccccc1F)c1ccc2c(c1)OCO2 in this assay?
Result :: active

Query :: Answer briefly: the call reported for CC(NC(=O)COC(=O)c1ccc2c(c1)OCO2)c1ccccc1 (stereo not drawn) in this assay.
Result :: inactive

Query :: Which outcome did this test record for the compound COc1ccc2[nH]c(=O)c(C3c4cc(OC)c(OC)cc4CCN3C(=O)c3ccco3)cc2c1 (stereo not drawn) ?
Result :: inactive

Query :: Tell me the recorded outcome of this test for CCS(=O)(=O)n1nc(-c2ccccc2)nc1SCc1ccccc1 .
Result :: active

Query :: Give the logged outcome of this assay for the following compound: O=C(Nc1ccccc1N1CCN(C(=O)c2ccccc2)CC1)c1ccc2c(c1)OCO2
Result :: inactive

Query :: Recorded test outcome, item CC(=O)Nc1ccc(NC(=O)CSc2nnnn2-c2ccccc2F)cc1
Result :: inactive

Query :: Dear colleague, could you share the recorded outcome for O=C(OCc1ccccc1F)c1ccc2c(c1)OCCO2 when you have a moment?
Result :: active

Query :: Could you kindly confirm the outcome this assay logged for Cc1[nH]n(-c2cccc(Cl)c2)c(=O)c1-c1ccc(Cl)cc1 ?
Result :: inactive

Query :: Which outcome was assigned to CCS(=O)(=O)n1nc(-c2ccc(OC)cc2)nc1SC in this test?
Result :: active

====

Kindly supply the reported max response values for the records listed here.
# Experiment Description: Cycloheximide Counterscreen for Small Molecule Inhibitors of Shiga Toxin; also: read at 38.3 µM for the half of the compounds with a filed dose
# Test Conditions: cell reporter, cycloheximide protein synthesis inhibition counterscreen; stronger effect = higher value
Hit rate of the full screen: of about 300,000 compounds, about 37,000 (12%) were called active. Only a selection was taken, and actives are over-represented in it overall.
Respond numerically; units are % and should not be typed.

Query :: Returns the measured max response for the input compound. Input: CCC(C)C(=O)Nc1ccccc1N1CCN(c2ccc(F)cc2)CC1 (stereo not drawn)
Result :: 5.61

Query :: Requested read-out: max response. Entry: Cc1ccc(-c2nc(-c3cccnc3)sc2CC(=O)Nc2ccc(C)c(Cl)c2)cc1
Result :: 8.82

Query :: Given the compound O=C(CCCCCn1c(=S)[nH]c2ccsc2c1=O)NC1CCCCC1 , what is its reported max response?
Result :: -3.34

Query :: Which max response is listed for Cc1nn(C)cc1C(=O)NNC(=S)Nc1ccc(Cl)cc1 ?
Result :: -3.2

Query :: max response lookup needed for Cc1cc(C)nc(SC2CCCCC2NS(=O)(=O)c2ccc(Cl)cc2)n1 (stereo not drawn) , thanks.
Result :: -1.57

Query :: Field request: max response | item: CC(C)C[C@@H](COc1ccccc1)N1CCN(CC(C)C)CCC1=O
Result :: 12.1

Query :: What does the data say about its max response? Entry: Cn1c(NC(=O)c2ccc3c(c2)OCO3)cc(=O)n(C)c1=O
Result :: -4.72

Query :: Request the reported max response associated with Cc1ccc(F)cc1NC(=O)c1ccc2c(c1)OCO2
Result :: 25.6

Query :: Give its max response value. Item: COCCCNc1nc2c(-c3cccc(C(F)(F)F)c3)nnn2c2ccccc12
Result :: -2.05

Query :: Find the recorded max response belonging to COc1ccc(Cl)cc1C(=O)NCc1cn(C)nc1C and report it.
Result :: -4.09

Query :: So what's the measured max response for this one? CCOP(=O)(OCC)C(Nc1cccc(C)c1)c1ccc(F)cc1 (stereo not drawn)
Result :: -1.31

Query :: Field request: max response | item: Cc1ccc2cccc(S(=O)(=O)N3CCN(c4ccccc4F)CC3)c2n1
Result :: -1.96

Query :: Need max response of Cc1c(NS(=O)(=O)c2ccc(NC3CCCC3)c([N+](=O)[O-])c2)c(=O)n(-c2ccccc2)n1C , thanks.
Result :: -1.22

Query :: Name the recorded max response for COCCNC(=O)C(c1ccc(C)cc1)N(C(=O)CCC(=O)Nc1ccccn1)c1cccc(C)c1 (stereo not drawn) .
Result :: -1.18

Query :: Sample COC(=O)Cn1nc(-c2ccccc2)c2cc(Cl)ccc21 — what was its max response?
Result :: -2.04

Query :: Bench note: what max response did CN(C(=O)Nc1ccc(Cl)cc1)n1cnc2ccccc2c1=O show?
Result :: 3.38

Query :: Fill in the blank: the reported max response of Cc1cc(C(C)(C)C)oc1C(=O)N(CC(=O)NC1CCCC1)Cc1ccc(Cl)cc1 is ____.
Result :: 2.13

Query :: Requested read-out: max response. Entry: Cc1ccc(-n2nc3c(c2NC(=O)c2ccc4c(c2)OCO4)CSC3)c(C)c1
Result :: -1.7

Query :: Dear colleague, I am looking for the recorded max response of the following compound: Cc1nnc(NCCO)c2ccccc12
Result :: 4.14

Query :: What does the data say about its max response? Entry: COc1cccc(CNC(=O)c2nnn(CC(=O)Nc3cc(C)ccc3C)c2N)c1
Result :: 7.9

Query :: Request the reported max response associated with COc1ccc(C(=O)Nc2ccc(F)cc2F)cc1
Result :: 28.7

Query :: # max response lookup, item Oc1c(Cl)cc(Cl)cc1/C=N/c1ncn[nH]1
Result :: -3.31

Query :: # max response lookup, item O=C(NCCCN1CCOCC1)C1CCCN(S(=O)(=O)N2CCCCC2)C1 (stereo not drawn)
Result :: 7.19
